Biological target: T1, BS69 coiled-coil MYND domain (BS69_(CC-MYND), amino acids 480-602) (human, UniProt Q15326-1 480-602)
T1 construct: cloned into pET49b+; also called ZMYND11 CC-MYND; source: E. coli Rosetta 2 (DE3) pLysS, purified (HisPur cobalt resin, 3C protease cleavage, Superdex 75); not shown: GST, N-terminal, cleaved; His6, N-terminal, cleaved
T1 sequence (looked up): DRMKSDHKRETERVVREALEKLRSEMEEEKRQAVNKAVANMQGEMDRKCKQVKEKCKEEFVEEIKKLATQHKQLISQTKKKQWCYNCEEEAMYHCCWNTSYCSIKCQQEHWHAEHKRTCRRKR
Experiment: ITC; EBNA2 polypeptide (0.3 or 0.6 mM) titrated into 0.1 mM BS69_(CC-MYND) in the cell, 19 x 2.0 µl injections, 25°C, 20 mM Tris-HCl, 100 mM NaCl, 1 mM TCEP, pH 7.5; one-site (one event) model; n on monomer concentrations; mean of 3 experiments
Conditions: both partners purified
pKd: −log10 of the molar value.
The following binders are listed with their measured pKd values.
Quantity measured: pKd

Binder	Recorded result
T2 EBNA2_(348-422) motif 3 mt (PTLEP to ATAEA) (domain or fragment, EBNA2 of type 2 Epstein-Barr virus (AG876), amino acids 348-422, motif 3 PTLEP_(414-418) mutated to ATAEA; also called T2 EBNA2348-422 m3 mt; source: E. coli Rosetta 2 (DE3) pLysS, purified (HisPur cobalt resin, 3C protease cleavage, Superdex 75); not shown: His6, N-terminal, cleaved) SMPQLSPVVSLHQGQGPENSPTPGPSTAGPVCRVTPSATPDISPIHEPESSDSEEPPFLFPSDWYPATAEAAELD	6.23
type 2 EBNA2 polypeptide T2 EBNA2_(348-422) (domain or fragment, EBNA2 of type 2 Epstein-Barr virus (AG876), amino acids 348-422 (motifs 1, 2 and 3), in pET47b+; also called T2 E2_(348-422); source: E. coli Rosetta 2 (DE3) pLysS, purified (HisPur cobalt resin, 3C protease cleavage, Superdex 75); not shown: His6, N-terminal, cleaved) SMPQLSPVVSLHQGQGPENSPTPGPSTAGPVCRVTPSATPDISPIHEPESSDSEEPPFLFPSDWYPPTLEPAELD	6.00
T2 EBNA2_(348-422) m3 T1 (PTLEP to the type 1 sequence PSIDP) (domain or fragment, source: E. coli Rosetta 2 (DE3) pLysS, purified (HisPur cobalt resin, 3C protease cleavage, Superdex 75); not shown: His6, N-terminal, cleaved) SMPQLSPVVSLHQGQGPENSPTPGPSTAGPVCRVTPSATPDISPIHEPESSDSEEPPFLFPSDWYPPSIDPAELD	5.72

Measured values drawn from paper PMC6638984 for this set.
